Tested on: Streptococcus pneumoniae
protocolText: Antibacterial activity against erythromycin-sensitive Streptococcus pneumoniae ATCC 49619 by broth microdilution method
Assay type: functional
Please respond with reported MIC for every item in the list.
Numeric answer only, unit mg/L assumed.

In plain terms, CC[C@H]1OC(=O)[C@H](C)C(=O)[C@H](C)[C@@H](O[C@@H]2O[C@H](C)C[C@H](N(C)C)[C@H]2O)[C@](C)(OC)C[C@@H](C)/C(=N\OCC#Cc2cncnc2)[C@H](C)[C@H]2OC(=O)O[C@@]21C has a documented MIC of 0.032

In plain terms, CC[C@H]1OC(=O)[C@H](C)C(=O)[C@H](C)[C@@H](O[C@@H]2O[C@H](C)C[C@H](N(C)C)[C@H]2O)[C@](C)(OC)C[C@@H](C)/C(=N\OCCCc2cnc3ccccc3c2)[C@H](C)[C@H]2OC(=O)O[C@@]21C has a documented MIC of 0.064

In plain terms, CC[C@H]1OC(=O)[C@H](C)C(=O)[C@H](C)[C@@H](O[C@@H]2O[C@H](C)C[C@H](N(C)C)[C@H]2O)[C@](C)(OC)C[C@@H](C)/C(=N\OCC#Cc2cccc3cnccc23)[C@H](C)[C@H]2OC(=O)O[C@@]21C has a documented MIC of 0.016

In plain terms, CC[C@H]1OC(=O)[C@H](C)C(=O)[C@H](C)[C@@H](O[C@@H]2O[C@H](C)C[C@H](N(C)C)[C@H]2O)[C@](C)(OC)C[C@@H](C)/C(=N\OCC#Cc2ccc3ncccc3c2)[C@H](C)[C@H]2OC(=O)O[C@@]21C has a documented MIC of 0.016
